system: MATE2-K (Homo sapiens)
assay: Creatinine transport by MATE2-K in transiently transfected MDCKII cells
Format: cell-based
run.conditions: human, transiently transfected MDCKII cells expressing MATE2-K
measure.name: Km

Asked: Quick one: give measured Km for CN1CC(=O)NC1=N [creatinine]
Given back: > 2000 µM

###

system: OCT2 (Homo sapiens)
Sequence (O15244 whole entry): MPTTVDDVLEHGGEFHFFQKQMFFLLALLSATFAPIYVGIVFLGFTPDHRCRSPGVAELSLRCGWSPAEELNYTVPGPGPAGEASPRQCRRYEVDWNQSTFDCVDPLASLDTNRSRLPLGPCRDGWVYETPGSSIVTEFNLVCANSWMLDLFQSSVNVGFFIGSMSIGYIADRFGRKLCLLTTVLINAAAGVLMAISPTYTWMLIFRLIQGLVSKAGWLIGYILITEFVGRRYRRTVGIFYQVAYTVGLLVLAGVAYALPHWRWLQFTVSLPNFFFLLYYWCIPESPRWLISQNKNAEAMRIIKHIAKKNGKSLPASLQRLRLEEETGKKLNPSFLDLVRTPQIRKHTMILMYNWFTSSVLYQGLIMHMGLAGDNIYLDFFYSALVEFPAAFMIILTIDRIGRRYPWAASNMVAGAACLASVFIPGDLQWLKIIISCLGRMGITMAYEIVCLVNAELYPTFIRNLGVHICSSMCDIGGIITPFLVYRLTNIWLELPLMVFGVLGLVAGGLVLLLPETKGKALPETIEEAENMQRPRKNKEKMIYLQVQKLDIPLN
assay: Inhibition of OCT2 transport of tetraethylammonium
Format: cell-based
measure.name: pIC50
# log scale: pIC50 equals minus log10 of the concentration in mol/L

Asked: Read the entry `C[C@@H]1CCO[C@H]2Cn3cc(C(=O)NCc4ccc(F)cc4F)c(=O)c(O)c3C(=O)N12` and write its reported pIC50.
Given back: 7.18

Asked: State, in one line, measured pIC50 of `CN/C(=N/CCSCc1nc[nH]c1C)NC#N`
Given back: 3.87

Asked: Item `COc1cc(Cc2cnc(N)nc2N)cc(OC)c1OC` : provide pIC50
Given back: 4.17

Asked: Give the reported value of pIC50 for this record: CC(C)c1nc(CN(C)C(=O)N[C@@H](CCN2CCOCC2)C(=O)N[C@H](CC[C@H](Cc2ccccc2)NC(=O)OCc2cncs2)Cc2ccccc2)cs1 [Cobicistat, cobicistat]
Given back: 4.62

###

system: UniProt:Q96FL8
Sequence (Q96FL8 whole entry): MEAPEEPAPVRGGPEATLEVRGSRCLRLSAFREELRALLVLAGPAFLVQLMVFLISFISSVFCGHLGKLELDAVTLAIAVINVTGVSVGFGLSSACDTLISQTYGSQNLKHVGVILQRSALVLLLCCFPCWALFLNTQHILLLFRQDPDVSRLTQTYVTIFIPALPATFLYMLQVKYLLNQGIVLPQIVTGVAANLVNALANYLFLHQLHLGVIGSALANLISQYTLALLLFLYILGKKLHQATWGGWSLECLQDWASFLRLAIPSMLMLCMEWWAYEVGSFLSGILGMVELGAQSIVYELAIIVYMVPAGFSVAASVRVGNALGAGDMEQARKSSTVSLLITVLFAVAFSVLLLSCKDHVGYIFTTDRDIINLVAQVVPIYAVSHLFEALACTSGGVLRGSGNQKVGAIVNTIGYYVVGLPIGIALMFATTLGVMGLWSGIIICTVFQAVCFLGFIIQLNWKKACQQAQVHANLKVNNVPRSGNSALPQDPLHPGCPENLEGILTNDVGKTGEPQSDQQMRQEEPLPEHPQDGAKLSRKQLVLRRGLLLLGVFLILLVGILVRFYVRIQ
assay: Creatinine transport by MATE1 in transiently transfected MDCKII cells
Format: cell-based
run.conditions: human, transiently transfected MDCKII cells expressing MATE1
measure.name: Km

Asked: Give the value of Km reported for the following: `CN1CC(=O)NC1=N`
Given back: > 2000 µM

###

Assignment: determine reported IC50 for the given compounds.
system: OCT3 (Homo sapiens, UniProt O75751)
Sequence (O75751 whole entry): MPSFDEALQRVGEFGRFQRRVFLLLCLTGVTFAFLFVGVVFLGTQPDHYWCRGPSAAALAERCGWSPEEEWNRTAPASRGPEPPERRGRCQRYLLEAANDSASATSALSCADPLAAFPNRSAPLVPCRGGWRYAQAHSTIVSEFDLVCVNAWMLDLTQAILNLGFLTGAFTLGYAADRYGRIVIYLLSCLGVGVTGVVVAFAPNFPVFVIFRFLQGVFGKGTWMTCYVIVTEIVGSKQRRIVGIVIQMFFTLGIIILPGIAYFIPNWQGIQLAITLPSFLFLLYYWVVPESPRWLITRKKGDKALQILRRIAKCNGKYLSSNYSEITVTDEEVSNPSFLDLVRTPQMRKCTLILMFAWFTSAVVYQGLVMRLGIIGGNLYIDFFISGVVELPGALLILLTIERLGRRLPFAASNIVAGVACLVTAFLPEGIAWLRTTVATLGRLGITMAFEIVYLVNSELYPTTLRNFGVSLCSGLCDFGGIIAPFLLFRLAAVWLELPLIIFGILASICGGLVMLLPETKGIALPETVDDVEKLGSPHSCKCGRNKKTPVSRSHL
assay: Inhibition of OCT3 transport of 1-methyl-4-phenylpyridinium

Asked: Retrieve IC50 on OCT3 (Homo sapiens, UniProt O75751); query C[C@@H]1CCO[C@H]2Cn3cc(C(=O)NCc4ccc(F)cc4F)c(=O)c(O)c3C(=O)N12 [Dolutegravir, dolutegravir]
Given back: > 100 µM

Asked: Return reported IC50 for target or system OCT3 (Homo sapiens, UniProt O75751), item CN/C(=N/CCSCc1nc[nH]c1C)NC#N [Cimetidine, cimetidine] .
Given back: 87.7 µM

Asked: Lab note: OCT3 (Homo sapiens, UniProt O75751) assay, enter IC50 for CC(C)c1nc(CN(C)C(=O)N[C@@H](CCN2CCOCC2)C(=O)N[C@H](CC[C@H](Cc2ccccc2)NC(=O)OCc2cncs2)Cc2ccccc2)cs1 [Cobicistat, cobicistat] here
Given back: > 100 µM

###

system: MATE2-K (Homo sapiens, UniProt Q86VL8)
Sequence (Q86VL8 1-566 isoform Q86VL8-3): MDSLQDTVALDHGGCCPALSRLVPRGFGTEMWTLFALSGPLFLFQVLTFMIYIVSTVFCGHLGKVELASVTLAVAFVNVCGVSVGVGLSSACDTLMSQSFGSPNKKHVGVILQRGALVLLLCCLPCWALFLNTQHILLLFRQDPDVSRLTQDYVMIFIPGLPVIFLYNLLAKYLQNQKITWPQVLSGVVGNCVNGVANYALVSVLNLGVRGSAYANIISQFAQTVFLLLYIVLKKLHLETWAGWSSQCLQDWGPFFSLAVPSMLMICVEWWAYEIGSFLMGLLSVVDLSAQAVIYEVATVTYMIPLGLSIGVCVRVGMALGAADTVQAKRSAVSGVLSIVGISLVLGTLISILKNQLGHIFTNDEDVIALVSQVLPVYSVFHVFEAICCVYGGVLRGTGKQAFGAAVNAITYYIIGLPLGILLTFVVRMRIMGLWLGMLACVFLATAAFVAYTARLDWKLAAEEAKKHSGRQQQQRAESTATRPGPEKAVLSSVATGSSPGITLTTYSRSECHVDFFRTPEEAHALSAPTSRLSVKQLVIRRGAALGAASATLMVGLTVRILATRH
assay: Inhibition of MATE2-K transport of tetraethylammonium
measure.name: IC50 (µM)
Use µM as the unit, but write only the number.

Asked: Look up IC50 of CC(C)c1nc(CN(C)C(=O)N[C@@H](CCN2CCOCC2)C(=O)N[C@H](CC[C@H](Cc2ccccc2)NC(=O)OCc2cncs2)Cc2ccccc2)cs1 [Cobicistat, cobicistat] and report it.
Given back: 33.5

Asked: Give IC50 for the following molecule: `CN/C(=N/CCSCc1nc[nH]c1C)NC#N`
Given back: 46.6

Value source: paper PMC4120670
